# assay-summary: A quantitative high throughput screen for small molecules that induce DNA re-replication in MCF 10a normal breast cells. Note: nearly all actives have a fitted effect of over 50% in size.
# cond: MCF 10A DNA re-replication, Hoechst nuclear intensity, 48 h; series mostly up to 46.1 µM
Out of some 350,000 compounds screened, about 9,900 (2.8%) were called active. Inconclusive results (about 15%) are left out. Calls come from the whole dose curve; as a rule, active = well fitted activation curve with a large enough effect; inconclusive = small, poorly fitted or top-dose-only effect; inactive = no such curve, though single readings can be large or run the other way. The sample as a whole holds a higher share of actives than the screen did.
Valid outcomes are listed here; reply with one: active, inactive

Name the outcome recorded for `COc1ccc(-c2sc3ccc(OC)cc3c2C#Cc2ccccn2)cc1` in the assay. active

Hi, sorry to bother you, what did the test record for `O=C(NCc1ccccc1)C1=C[C@@H](C2CCCCC2)C[C@@H](OCc2ccc(CO)cc2)O1` ? active

Could you kindly confirm the outcome this assay logged for `CCCC(=O)n1nc(-c2ccccc2)nc1N` ? inactive

Tell me the assay call for `CCN(C(=O)CSc1cccc[n+]1[O-])c1ccccc1` please. inactive

What outcome does the record of this test show for `CC(C)[C@@H](C(=O)OCC(=O)c1ccc2c(c1)NC(=O)CO2)N1C(=O)c2ccccc2C1=O` ? inactive

Call for entry `CCOC(=O)c1sc2nc(SC)nc(-c3ccccc3)c2c1N` : inactive

Each compound tested received a call. Report the one for `COc1ccc(CCC(=O)Nc2ccc(Cl)c(S(=O)(=O)N3CCOCC3)c2)cc1OC` . inactive

Write down the call the test reported for this compound. Item: `CC(=O)NC12CC3CC(C1)CC(C(=O)N1CCN(S(=O)(=O)c4cccs4)CC1)(C3)C2` inactive

Each compound tested received a call. Report the one for COc1ccc(-c2nc(CS(=O)CC(=O)NCc3ccccn3)c(C)o2)cc1 (stereo not drawn) . inactive

Field: outcome | Entry: `O=C(Nc1c[nH]c(=O)[nH]c1=O)OCc1ccccc1` inactive

// param item: `O=C(CN1C(=O)c2cccc3cccc1c23)Nc1ccccc1` ; yields the recorded call active

Call for entry `CCN(CC)C(=O)c1sc2nc(-c3ccccc3)ccc2c1N` : active

Which outcome was entered for the compound `Cc1cc(C)cc(NC(=O)CN2C(=O)c3ccccc3C2=O)c1` in this test? inactive
